Hey, just so you know, these numbers are from PubChem BioAssay (NCI).

# Procedure Summary: NCI Yeast Anticancer Drug Screen. Data for the rad50 strain (AID 155);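 note: 0% = growth of vehicle-only cultures of the same strain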
# Condition Label: S. cerevisiae rad50 strain growth inhibition; at 50.0 µM; stronger effect = higher value
About 79,000 compounds went through this panel and 15% of them were active in at least one assay; those are over-represented in the sample as a whole.
Measured Attribute: growth inhibition (%)
Return type: number; implicit unit %.

See these solved cases before continuing.
CC(C)c1ccc2c(c1)CCC1C2(C)CCCC1(C)C(O)c1ccccc1 (stereo unspecified) = 9.45
C/C=N\n1c(C)c(C#N)c(C#N)c1N = 8.6
NNC(=S)N/N=C(\CCCC(=O)NCCc1ccccc1)CC(=O)c1ccccc1 = -3.6
COc1ccccc1C(=O)N/N=C/c1ccncc1 = -2.85

Request the reported growth inhibition associated with CCN(CC)CCOCC(=O)Nc1ccccc1C
-17.3

Request the reported growth inhibition associated with Cc1cc(S(=O)(=O)O)cc(Cl)c1N
-11.3
